- PROTOCOL TEXT: in vivo
- TEST CONDITIONS: female, Sprague-Dawley, rat, brain ECF (striatum microdialysate) versus unbound plasma, iv, 4 mg/kg
ENDPOINT LABEL: Kp
Answer field: number only, no words.

-- ask Given `N#Cc1ccc(C(c2ccc(C#N)cc2)n2cncn2)cc1` , respond with its Kp.
-- reply 0.51

====

- PROTOCOL TEXT: Brain pharmacokinetics after oral administration
- Type: in vivo
- TEST CONDITIONS: rat; 4 mg/kg oral gavage, brain ECF
ENDPOINT LABEL: Cmax (ng/mL)
Numeric only. Scale: ng/mL

-- ask Return Cmax (reported value) for this compound: `N#Cc1ccc(C(c2ccc(C#N)cc2)n2cncn2)cc1`
-- reply 176
